system: Staphylococcus aureus (ATCC 25923); assay: Antibacterial activity, serial dilutions in liquid broth, S. aureus; type: cell-based; conditions: S. aureus (G+)
measured parameter: MIC (µg/mL)
Express your answer in µg/mL, writing the number without its unit.

Field MIC (entry C=CCNC(=NN=Cc1ccccn1)[S][Cu][O]C(C)=O.C=CCNC(=NN=Cc1ccccn1)[S][Cu][O]C(C)=O.O.O.O.O [compound 4, [Cu2(L)2(CH3COO)2]·4H2O] ) reads 0.244

Field MIC (entry C=CCNC(=NN=Cc1ccccn1)[S][Cu][Br] [compound 3, [Cu(L)Br]] ) reads 0.244

Field MIC (entry C=CCNC(=NN=Cc1ccccn1)[S][Cu][Cl] [compound 2, [Cu(L)Cl]] ) reads 0.122

Field MIC (entry C=CCNC(=S)NN=Cc1ccccn1.C=CCNC(=S)NN=Cc1ccccn1.O.[Cl-].[Cl-].[Ni+2] [compound 5, [Ni(HL)2]Cl2·H2O] ) reads 15.6

Field MIC (entry C=CCNC([S-])=NN=Cc1ccccn1.C=CCNC([S-])=NN=Cc1ccccn1.[Cl-].[Co+3] [compound 6, [Co(L)2]Cl] ) reads 62.5

----------
Hi there, I'd appreciate the recorded pIC50 for every entry that follows.
assay: Antiradical activity, ABTS•+ method; conditions: read-out: IC50 toward ABTS•+ radical cation
Formally, pIC50 is defined as -log10 of the concentration c, with c in mol/L.

Field pIC50 (entry C=CCNC(=NN=Cc1ccccn1)[S][Cu][O]C(C)=O.C=CCNC(=NN=Cc1ccccn1)[S][Cu][O]C(C)=O.O.O.O.O [compound 4, [Cu2(L)2(CH3COO)2]·4H2O] ) reads 4.39

Field pIC50 (entry C=CCNC(=NN=Cc1ccccn1)[S][Cu][Br] [compound 3, [Cu(L)Br]] ) reads 4.37

Field pIC50 (entry C=CCNC(=S)NN=Cc1ccccn1.C=CCNC(=S)NN=Cc1ccccn1.O.[Cl-].[Cl-].[Ni+2] [compound 5, [Ni(HL)2]Cl2·H2O] ) reads 5.07

----------
test system: Daphnia magna; assay: Acute toxicity assay against Daphnia magna; conditions: Daphnia magna, 24 h exposure
measured parameter: LC50 (µM)
Express your answer in µM, writing the number without its unit.

Field LC50 (entry C=CCNC(=NN=Cc1ccccn1)[S][Cu][Cl] [compound 2, [Cu(L)Cl]] ) reads 3.5

Field LC50 (entry C=CCNC([S-])=NN=Cc1ccccn1.C=CCNC([S-])=NN=Cc1ccccn1.[Cl-].[Co+3] [compound 6, [Co(L)2]Cl] ) reads 65.4

Field LC50 (entry C=CCNC(=NN=Cc1ccccn1)[S][Cu][Br] [compound 3, [Cu(L)Br]] ) reads 3.5

Field LC50 (entry C=CCNC(=NN=Cc1ccccn1)[S][Cu][O]C(C)=O.C=CCNC(=NN=Cc1ccccn1)[S][Cu][O]C(C)=O.O.O.O.O [compound 4, [Cu2(L)2(CH3COO)2]·4H2O] ) reads 1.3

----------
tested on: human muscle rhabdomyosarcoma (RD) cell line; assay: Antiproliferative activity (MTS and Resazurin assays), RD; type: cell-based; conditions: RD
measured parameter: pIC50
Formally, pIC50 is defined as -log10 of the concentration c, with c in mol/L.

Field pIC50 (entry C=CCNC(=NN=Cc1ccccn1)[S][Cu][Br] [compound 3, [Cu(L)Br]] ) reads 6.70

Field pIC50 (entry C=CCNC(=NN=Cc1ccccn1)[S][Cu][Cl] [compound 2, [Cu(L)Cl]] ) reads 6.89

Field pIC50 (entry C=CCNC(=S)NN=Cc1ccccn1.C=CCNC(=S)NN=Cc1ccccn1.O.[Cl-].[Cl-].[Ni+2] [compound 5, [Ni(HL)2]Cl2·H2O] ) reads 5.54

Field pIC50 (entry C=CCNC(=NN=Cc1ccccn1)[S][Cu][O]C(C)=O.C=CCNC(=NN=Cc1ccccn1)[S][Cu][O]C(C)=O.O.O.O.O [compound 4, [Cu2(L)2(CH3COO)2]·4H2O] ) reads 7.30
